Values of IC50 reported for Adenosylhomocysteinase (Homo sapiens, UniProt P23526) appear below.

Some solved entries appear below for comparison.
chemical_smiles=[N-]=[N+]=NCC1=C(F)[C@@H](n2cnc3c(N)ncnc32)[C@H](O)[C@@H]1O result_value="> 100 µM"
chemical_smiles=Nc1ncnc2c1ncn2[C@@H]1C(F)=C(CF)[C@@H](O)[C@H]1O result_value="> 100 µM"

Lookup: Provide value of IC50 for this record tested with Adenosylhomocysteinase (Homo sapiens, UniProt P23526): NCC1=C(F)[C@@H](n2cnc3c(N)ncnc32)[C@H](O)[C@@H]1O
Sequence (P23526 whole entry): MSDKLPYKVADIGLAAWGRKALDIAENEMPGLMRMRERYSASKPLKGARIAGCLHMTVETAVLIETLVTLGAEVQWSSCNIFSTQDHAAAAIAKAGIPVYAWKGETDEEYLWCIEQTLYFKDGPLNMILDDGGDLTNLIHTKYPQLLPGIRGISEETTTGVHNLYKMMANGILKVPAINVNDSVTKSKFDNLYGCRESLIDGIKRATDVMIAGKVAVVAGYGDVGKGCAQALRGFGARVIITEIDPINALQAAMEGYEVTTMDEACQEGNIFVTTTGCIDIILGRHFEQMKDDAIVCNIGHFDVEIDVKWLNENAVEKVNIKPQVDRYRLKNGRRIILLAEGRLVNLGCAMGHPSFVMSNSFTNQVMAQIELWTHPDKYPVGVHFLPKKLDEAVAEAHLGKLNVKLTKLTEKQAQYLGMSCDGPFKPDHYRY
Found: 12.7 µM
